measuredTarget: T1, mouse vascular endothelial growth factor receptor-2 Fc chimera (Flk-1-Fc) (mouse, UniProt P35918 20-762)
T1 construct: purchased from R&D Systems; also called mouse VEGF-R2-Fc; not shown: Fc part of the purchased chimera
T1 sequence (P35918 20-762, change not shown): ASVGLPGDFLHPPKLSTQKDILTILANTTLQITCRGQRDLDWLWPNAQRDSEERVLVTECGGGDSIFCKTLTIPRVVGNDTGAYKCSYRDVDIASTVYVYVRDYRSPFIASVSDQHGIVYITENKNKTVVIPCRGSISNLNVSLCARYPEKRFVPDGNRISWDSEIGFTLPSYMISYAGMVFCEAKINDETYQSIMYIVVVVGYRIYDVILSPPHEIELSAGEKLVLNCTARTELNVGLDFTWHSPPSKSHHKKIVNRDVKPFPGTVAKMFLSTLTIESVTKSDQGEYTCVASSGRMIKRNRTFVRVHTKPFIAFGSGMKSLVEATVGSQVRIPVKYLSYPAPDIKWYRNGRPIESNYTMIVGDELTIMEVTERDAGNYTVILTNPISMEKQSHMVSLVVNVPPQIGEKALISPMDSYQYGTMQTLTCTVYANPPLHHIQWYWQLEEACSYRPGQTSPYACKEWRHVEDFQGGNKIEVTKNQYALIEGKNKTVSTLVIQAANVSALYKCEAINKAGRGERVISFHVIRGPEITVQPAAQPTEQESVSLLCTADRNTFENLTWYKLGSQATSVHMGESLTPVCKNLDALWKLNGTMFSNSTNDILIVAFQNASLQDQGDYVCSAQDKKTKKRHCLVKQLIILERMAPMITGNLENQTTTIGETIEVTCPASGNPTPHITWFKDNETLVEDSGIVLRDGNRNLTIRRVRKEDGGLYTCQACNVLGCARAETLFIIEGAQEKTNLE
test: BIAcore, target-Fc immobilized
outcomeMeasure: koff (s⁻¹)
# number only, unit s⁻¹ dropped from output

In the examples that follow, each entry is paired with its recorded koff.
E6 (designed binder, Del 1-8 10Fn3 clone; Flag-tagged in vitro translated protein in the radioactive assay, His6-tagged E. coli protein in BIAcore; tags left out) EVVAATPTSLLISWRHPHFPTRYYRITYGETGGNSPVQEFTVPLQPPTATISGLKPGVDYTITGYAVTDGWNGRLLSIPISINYRT	0.00136
E26 (designed binder, Del 1-8 10Fn3 clone; Flag-tagged in vitro translated protein in the radioactive assay, His6-tagged E. coli protein in BIAcore and cell assays; tags left out) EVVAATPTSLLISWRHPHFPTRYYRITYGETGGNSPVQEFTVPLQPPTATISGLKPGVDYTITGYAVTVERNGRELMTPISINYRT	0.000477
E25 (designed binder, Del 1-8 10Fn3 clone; Flag-tagged in vitro translated protein in the radioactive assay, His6-tagged E. coli protein in BIAcore; tags left out) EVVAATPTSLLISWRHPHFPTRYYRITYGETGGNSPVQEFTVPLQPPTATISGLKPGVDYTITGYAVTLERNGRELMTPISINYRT	0.000378
E29 (designed binder, Del 1-8 10Fn3 clone; Flag-tagged in vitro translated protein in the radioactive assay, His6-tagged E. coli protein in BIAcore and cell assays; tags left out) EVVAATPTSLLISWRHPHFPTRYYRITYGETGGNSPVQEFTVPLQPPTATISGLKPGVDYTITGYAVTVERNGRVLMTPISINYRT	0.000288
M5FL (designed binder, extension and tag left out) VSDVPRDLEVVAATPTSLLISWRHPHFPTRYYRITYGETGGNSPVQEFTVPLQPPLATISGLKPGVDYTITGYAVTKERNGRELFTPISINYRT	0.000582
E18 (designed binder, Del 1-8 10Fn3 clone; Flag-tagged in vitro translated protein in the radioactive assay, His6-tagged E. coli protein in BIAcore and cell assays; tags left out) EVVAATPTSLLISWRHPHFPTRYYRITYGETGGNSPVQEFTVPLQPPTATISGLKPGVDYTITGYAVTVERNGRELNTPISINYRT	0.000195

Query: Return reported koff; argument: E19 (designed binder, Del 1-8 10Fn3 clone; Flag-tagged in vitro translated protein in the radioactive assay, His6-tagged E. coli protein in BIAcore and cell assays; tags left out) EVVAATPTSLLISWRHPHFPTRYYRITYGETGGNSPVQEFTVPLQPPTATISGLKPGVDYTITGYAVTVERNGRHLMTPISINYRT
Result: 0.000223
